tested on: A. ochraceus; test: Antifungal bioassay (MIC/MFC); type: cell-based; conditions: Aspergillus ochraceus; A.o. (A. ochraceus); read-out: MIC
TEST_READOUT: MIC (µg/mL)
// note: answer is a bare numeric in µg/mL

Would you please look over these solved cases?
COMPOUND: COC(=O)c1[nH]c2ccc(F)cc2c1/C=C1\SC(=S)N(C)C1=O
UNITS_OF_MEASURE: µg/mL
MIC: 8
--
COMPOUND: COC(=O)c1[nH]c2ccccc2c1/C=C1\SC(=S)N(c2ccc(O)cc2)C1=O
UNITS_OF_MEASURE: µg/mL
MIC: 8
--
COMPOUND: COC(=O)c1[nH]c2ccccc2c1/C=C1\SC(=S)N(c2cccc(O)c2)C1=O
UNITS_OF_MEASURE: µg/mL
MIC: 8
--
COMPOUND: COC(=O)c1[nH]c2ccc(F)cc2c1/C=C1\SC(=S)N(c2ccc(O)cc2)C1=O
UNITS_OF_MEASURE: µg/mL
MIC: 4
--
COMPOUND: COC(=O)c1[nH]c2ccccc2c1/C=C1\SC(=S)N(CC(=O)O)C1=O
UNITS_OF_MEASURE: µg/mL
MIC: 8
--
COMPOUND: COC(=O)c1[nH]c2ccc(F)cc2c1/C=C1\SC(=S)N(CCC(=O)O)C1=O
UNITS_OF_MEASURE: µg/mL
MIC: 15
--
COMPOUND: COC(=O)c1[nH]c2ccccc2c1/C=C1\SC(=S)N(Cc2ccco2)C1=O
UNITS_OF_MEASURE: µg/mL
MIC: 8

# evaluate next
MIC reading for COC(=O)c1[nH]c2ccc(F)cc2c1/C=C1\SC(=S)N(C(C(=O)O)C(C)C)C1=O (centres unmarked) : 8
